assayDetails: In situ brain/choroid plexus perfusion with capillary depletion: CNS uptake of [3H]-arginine in absence and presence of transporter inhibitors
Format: in vivo, adult male BALB/c mice
assayConditions: male, BALB/c, mouse, occipital cortex, with 20 mM L-homoarginine, Arginine, tissue/plasma ratio, occipital cortex; + 20mM L-Homoarginine; 10 mins, 5ml/min; per mouse
endpointLabel: Kp at 10 min, […]
Numbers only.

Prompt: Identify Kp at 10 min, […] associated with the compound N=C(N)NCCC[C@H](N)C(=O)O [[^3H]-arginine, L-arginine]
Response: 0.0199

---

assayDetails: In situ brain/choroid plexus perfusion with capillary depletion: CNS uptake of [3H]-arginine in absence and presence of transporter inhibitors
Format: in vivo, adult male BALB/c mice
assayConditions: male, BALB/c, mouse, cerebellum, […], Arginine, tissue/plasma ratio, cerebellum; + 4mM BCH; 10 mins, 5ml/min; per mouse
endpointLabel: Kp at 10 min
Numbers only.

Prompt: Identify Kp at 10 min associated with the molecule N=C(N)NCCC[C@H](N)C(=O)O [[^3H]-arginine, L-arginine]
Response: 0.607

---

assayDetails: In situ brain/choroid plexus perfusion with capillary depletion: CNS uptake of [3H]-arginine in absence and presence of transporter inhibitors
Format: in vivo, adult male BALB/c mice
assayConditions: male, BALB/c, mouse, occipital cortex, […], Arginine, tissue/plasma ratio, occipital cortex; + 4mM BCH; 10 mins, 5ml/min; per mouse
endpointLabel: Kp at 10 min
Give bare numbers.

Prompt: Identify Kp at 10 min associated with the molecule N=C(N)NCCC[C@H](N)C(=O)O [[^3H]-arginine, L-arginine]
Response: 0.631

Origin of measurements: paper PMC12157126
